- TESTED_SYSTEM: CYP3A4 (testosterone metabolic site) (Homo sapiens)
- Construct: Human liver microsome (Corning Gentest); tissue Corning Gentest; host or cells: human liver microsomes
- Sequence (P08684 whole entry): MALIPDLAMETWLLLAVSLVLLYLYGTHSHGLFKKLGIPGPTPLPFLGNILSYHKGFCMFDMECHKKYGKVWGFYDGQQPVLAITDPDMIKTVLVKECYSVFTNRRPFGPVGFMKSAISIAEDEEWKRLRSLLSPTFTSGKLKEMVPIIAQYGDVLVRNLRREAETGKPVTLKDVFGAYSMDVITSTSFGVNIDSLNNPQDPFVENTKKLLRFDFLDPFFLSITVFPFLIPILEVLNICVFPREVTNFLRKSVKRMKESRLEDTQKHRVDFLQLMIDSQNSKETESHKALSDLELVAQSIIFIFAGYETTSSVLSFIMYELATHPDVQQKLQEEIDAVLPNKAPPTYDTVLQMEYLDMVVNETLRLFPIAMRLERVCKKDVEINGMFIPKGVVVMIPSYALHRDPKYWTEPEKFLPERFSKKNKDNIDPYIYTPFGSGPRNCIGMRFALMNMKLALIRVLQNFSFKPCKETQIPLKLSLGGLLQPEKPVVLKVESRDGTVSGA
- TEST_PROTOCOL: Inhibition of testosterone metabolic site on human liver microsome CYP3A4
- Assay type: in vitro ADME
- MEASUREMENT_CONDITIONS: human liver microsomes, testosterone probe
EXPERIMENTAL_READOUT: IC50 at 30 min

Bench note: what IC50 at 30 min did CCCC[C@](C)(CO)Nc1nc(N)nc2cc(-c3ccc(CN4CCN(C)CC4)nc3)cnc12 [Example 1] show?
> 30 µM
